# target-under-test: T1, AFP158/HLA-A*02:01 complex (human)
# T1 construct: biotinylated on the BSP by BirA for ELISA and panning; also called biotinylated AFP158/HLA-A*02:01 complex; Bio-AFP158
# experiment-summary: SPR, crude scFv captured;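 note: Peptide–MHC complex flowed at several concentrations over sensorchip-captured scFv, Kd derived from on- and off-rates obtained from the association and dissociation curves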
measured-property: Kd (nM)

AS170036 VL1VH1 HG56A (scFv) scFv: QSALTQPRSVSGSPGQSVTISCAGTSSDVGSENYVSWYQQHPGKAPKLMIYQVNKRASGVPDRFSGSKSGNTASLTISGLQAEDEADYYCASYRSSDHNIVFGGGTKLTVLGGGGSGGGGSGGGGSEVQLVESGGGLVQPGGSLRLSCAASGFTFSSYAMSWVRQAPGKGLEWVSTINSGTASPYYADSVKGRFTISRDNSKNTLYLQMNSLRAEDTAVYYCAKNFFDGSWFLGPPAMDYWGQGTLVTVSSHHHHHH : 160
AS170036 VL1VH1 HW105F (scFv) scFv: QSALTQPRSVSGSPGQSVTISCAGTSSDVGSENYVSWYQQHPGKAPKLMIYQVNKRASGVPDRFSGSKSGNTASLTISGLQAEDEADYYCASYRSSDHNIVFGGGTKLTVLGGGGSGGGGSGGGGSEVQLVESGGGLVQPGGSLRLSCAASGFTFSSYAMSWVRQAPGKGLEWVSTINSGTGSPYYADSVKGRFTISRDNSKNTLYLQMNSLRAEDTAVYYCAKNFFDGSFFLGPPAMDYWGQGTLVTVSSHHHHHH : 1400
AS170036 VL1VH1 HP110A (scFv) scFv: QSALTQPRSVSGSPGQSVTISCAGTSSDVGSENYVSWYQQHPGKAPKLMIYQVNKRASGVPDRFSGSKSGNTASLTISGLQAEDEADYYCASYRSSDHNIVFGGGTKLTVLGGGGSGGGGSGGGGSEVQLVESGGGLVQPGGSLRLSCAASGFTFSSYAMSWVRQAPGKGLEWVSTINSGTGSPYYADSVKGRFTISRDNSKNTLYLQMNSLRAEDTAVYYCAKNFFDGSWFLGPAAMDYWGQGTLVTVSSHHHHHH : 210
